- TEST: Viscosity responsiveness: fluorescence emission spectra of probes in glycerol and methanol
- Type: physicochemical
- MEASUREMENT_SETUP: probe 1×10^−5 M
- From the text: […]
What Fluorescence ratio in glycerol to methanol was measured for each of the following?
Answer using only a numeral; do not append any unit.

Prompt line: // Fluorescence ratio in glycerol to methanol lookup, key: CN(CCOC(=O)NCc1ccc(COc2nccc(N)n2)cc1)c1ccc(C2=C(C#N)C(=C(C#N)C#N)OC2(C)C)cc1 [probe 20]
Response line: 341

Prompt line: // Fluorescence ratio in glycerol to methanol lookup, key: CN(CCOC(=O)NCc1ccc(COc2nc(N)nc3[nH]cnc23)cc1)c1cc2c(s1)-c1sc(C=C(C#N)C#N)cc1[Si]2(C)C [probe 73]
Response line: 325

Prompt line: // Fluorescence ratio in glycerol to methanol lookup, key: CC1=CC(C)(C)N(CCOC(=O)NCc2ccc(COc3nc(N)nc4[nH]cnc34)cc2)c2ccc(/C=C(\C#N)C(=O)O)cc21 [probe 105]
Response line: 328

Prompt line: // Fluorescence ratio in glycerol to methanol lookup, key: CN(CCOC(=O)NCc1ccc(COc2nc(N)nc3[nH]cnc23)cc1)c1ccc(/C=C(\C#N)C(=O)O)cc1 [probe 101]
Response line: 362

Prompt line: // Fluorescence ratio in glycerol to methanol lookup, key: CN(CCO)c1ccc(-c2ccc(/C=C(\C#N)C(=O)NCc3ccc(COc4nc(N)nc5[nH]cnc45)cc3)s2)cc1 [Reference Probe 118, reference compound]
Response line: 158

Prompt line: // Fluorescence ratio in glycerol to methanol lookup, key: CN(CCOC(=O)NCc1ccc(COc2nc(N)nc3[nH]cnc23)cc1)c1ccc(C#C/C=C(\C#N)c2nc3ccccc3s2)cc1 [probe 59]
Response line: 370

----------
- TARGET_UNDER_TEST: SNAP protein tags (Homo sapiens, UniProt P16455, A127T/A154D/C150Q/C62A/E30R/G131K/G132T/G153L/K125A/K32I/L33F/M134L/N157G/Q115S/Q116H/R128A/R135S/S151G/S152D/S159E)
- TEST: Fluorescence activation of probe after incubation with corresponding protein tag (SNAP)
- Type: biochemical
- MEASUREMENT_SETUP: probe 5 μM, protein tag 10 μM, 37° C., 1 hr
OBSERVABLE: Fluorescence activation multiple
Answer using only a numeral; do not append any unit.

Prompt line: // Fluorescence activation multiple lookup, key: CC(C)(C)OC(=O)/C(C#N)=C/c1ccc(N(CCO)CCOC(=O)NCc2ccc(COc3nc(N)nc4[nH]cnc34)cc2)cc1 [probe 10]
Response line: 431

Prompt line: // Fluorescence activation multiple lookup, key: CC1=CC(C)(C)N(CCOC(=O)NCc2ccc(COc3nc(N)nc4[nH]cnc34)cc2)c2ccc(/C=C(\C#N)C(=O)O)cc21 [probe 105]
Response line: 549

Prompt line: // Fluorescence activation multiple lookup, key: CC1=CC(C)(C)N(CCOC(=O)NCc2ccc(COc3nc(N)nc4[nH]cnc34)cc2)c2ccc(/C=C(\C#N)c3nc4ccccc4s3)cc21 [probe 89]
Response line: 421

Prompt line: // Fluorescence activation multiple lookup, key: CN(CCOC(=O)NCc1ccc(COc2nc(N)nc3[nH]cnc23)cc1)c1ccc(C#C/C=C(\C#N)C(=O)O)cc1 [probe 109]
Response line: 546

----------
- TEST: Viscosity responsiveness: fluorescence emission spectra of probes in glycerol and methanol
- Assay type: physicochemical
- MEASUREMENT_SETUP: excited at maximum excitation wavelength of each probe
OBSERVABLE: Emission wavelength (nm)
Lab book: enter the figure in nm, no units written.

Prompt line: // Emission wavelength lookup, key: `CN(CCOC(=O)NCc1ccc(COc2nc(N)nc3[nH]cnc23)cc1)c1ccc(-c2ccc(/C=C(\C#N)C(=O)OC(C)(C)C)s2)s1`
Response line: 655

Prompt line: // Emission wavelength lookup, key: `CN(CCOC(=O)NCc1ccc(COc2nccc(N)n2)cc1)c1ccc(C2=C(C#N)C(=C(C#N)C#N)OC2(C)C)cc1`
Response line: 535

Prompt line: // Emission wavelength lookup, key: `CC(C)(C)OC(=O)/C(C#N)=C/c1cc2ccc(N(CCO)CCOC(=O)NCc3ccc(COc4nc(N)nc5[nH]cnc45)cc3)cc2s1`
Response line: 570

Prompt line: // Emission wavelength lookup, key: `CN(CCOC(=O)NCc1ccc(COc2nc(N)nc3[nH]cnc23)cc1)c1ccc2nc(/C=C(\C#N)c3nc4ccccc4o3)sc2c1`
Response line: 650

Prompt line: // Emission wavelength lookup, key: CN(CCO)c1ccc(-c2ccc(/C=C(\C#N)C(=O)NCc3ccc(COc4nc(N)nc5[nH]cnc45)cc3)s2)s1 [Reference Probe 121, reference compound]
Response line: 655

Prompt line: // Emission wavelength lookup, key: `CN(CCOC(=O)NCc1ccc(COc2nc(N)nc3[nH]cnc23)cc1)c1cc2sc3cc(/C=C(\C#N)c4nc5ccccc5o4)sc3c2s1`
Response line: 620

----------
- TARGET_UNDER_TEST: SNAP protein tags (Homo sapiens, UniProt P16455, A127T/A154D/C150Q/C62A/E30R/G131K/G132T/G153L/K125A/K32I/L33F/M134L/N157G/Q115S/Q116H/R128A/R135S/S151G/S152D/S159E)
- Sequence (P16455 1-182 E30R/K32I/L33F/C62A/Q115S/Q116H/K125A/A127T/R128A/G131K/G132T/M134L/R135S/C150Q/S151G/S152D/G153L/A154D/N157G/S159E): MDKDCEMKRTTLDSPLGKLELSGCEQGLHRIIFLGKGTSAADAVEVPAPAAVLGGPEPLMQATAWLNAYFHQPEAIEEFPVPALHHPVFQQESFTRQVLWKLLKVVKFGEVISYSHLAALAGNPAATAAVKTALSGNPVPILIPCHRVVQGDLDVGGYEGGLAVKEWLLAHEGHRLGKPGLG
- TEST: Fluorescence activation of probe after incubation with corresponding protein tag (SNAP)
- Assay type: biochemical
- MEASUREMENT_SETUP: probe 5 μM, protein tag 10 μM, 37° C., 1 hr
OBSERVABLE: Quantum yield of probe bound to protein tag
Answer using only a numeral; do not append any unit.

Prompt line: // Quantum yield of probe bound to protein tag lookup, key: `CN(CCOC(=O)NCc1ccc(COc2cc(Cl)nc(N)n2)cc1)c1ccc(/C=C(\C#N)c2nc3ccccc3o2)cc1`
Response line: 0.15

Prompt line: // Quantum yield of probe bound to protein tag lookup, key: CN(CCOC(=O)NCc1ccc(COc2nc(N)nc3[nH]cnc23)cc1)c1ccc2cc(/C=C(\C#N)C(=O)OC(C)(C)C)sc2c1 [probe 30]
Response line: 0.55

Prompt line: // Quantum yield of probe bound to protein tag lookup, key: `CN(CCOC(=O)NCc1ccc(COc2nc(N)nc3[nH]cnc23)cc1)c1cc2c(s1)-c1sc(C=C(C#N)C#N)cc1[Si]2(C)C`
Response line: 0.76

Prompt line: // Quantum yield of probe bound to protein tag lookup, key: `COCCOCCOCCOCCOCCN(CCOC(=O)NCc1ccc(COc2nc(N)nc3[nH]cnc23)cc1)c1ccc(/C=C(\C#N)C(=O)OC(C)(C)C)cc1`
Response line: 0.41

Prompt line: // Quantum yield of probe bound to protein tag lookup, key: CN(CCO)c1ccc(C#C/C=C(\C#N)C(=O)NCc2ccc(COc3nc(N)nc4[nH]cnc34)cc2)cc1 [Reference Probe 110, reference compound]
Response line: 0.01

Prompt line: // Quantum yield of probe bound to protein tag lookup, key: `CN(CCOC(=O)NCc1ccc(COc2nc(N)nc3[nH]cnc23)cc1)c1ccc2nc(/C=C(\C#N)C(=O)O)oc2c1`
Response line: 0.11

Prompt line: // Quantum yield of probe bound to protein tag lookup, key: `CN(CCOC(=O)NCc1ccc(COc2nccc(N)n2)cc1)c1ccc2c(c1)sc1cc(/C=C(/C#N)c3nc4ccccc4o3)sc12`
Response line: 0.66

Prompt line: // Quantum yield of probe bound to protein tag lookup, key: CN(CCO)c1ccc2nc(/C=C(\C#N)C(=O)NCc3ccc(COc4nc(N)nc5[nH]cnc45)cc3)sc2c1 [Reference Probe 115, reference compound]
Response line: 0.01

Prompt line: // Quantum yield of probe bound to protein tag lookup, key: `CN(CCOC(=O)NCc1ccc(COc2nc(N)nc3[nH]cnc23)cc1)c1cc2sc3cc(/C=C(\C#N)c4nc5ccccc5o4)sc3c2s1`
Response line: 0.77

Prompt line: // Quantum yield of probe bound to protein tag lookup, key: `CN1C(=O)/C(=C/c2ccc(N(C)CCOC(=O)NCc3ccc(COc4nc(N)nc5[nH]cnc45)cc3)cc2)N=C1c1ccccc1`
Response line: 0.18

Prompt line: // Quantum yield of probe bound to protein tag lookup, key: `CN(CCOC(=O)NCc1ccc(COc2nc(N)nc3[nH]cnc23)cc1)c1ccc(-c2ccc(/C=C(\C#N)C(=O)OC(C)(C)C)s2)s1`
Response line: 0.38

Prompt line: // Quantum yield of probe bound to protein tag lookup, key: `CN(CCOC(=O)NCc1ccc(COc2nc(N)nc3[nH]cnc23)cc1)c1ccc(-c2ccc(/C=C(\C#N)C(=O)OC(C)(C)C)s2)cc1`
Response line: 0.37

Prompt line: // Quantum yield of probe bound to protein tag lookup, key: `CN(CCOC(=O)NCc1ccc(COc2nc(N)nc3[nH]cnc23)cc1)c1cc2sc(/C=C(\C#N)c3nc4ccccc4s3)cc2s1`
Response line: 0.42
